Entries and their koff
Target: T1, Human soluble IL-6R (human, UniProt P08887 20-358)
T1 construct: Soluble recombinant form; biotinylated in some assays; also called hIL-6R; human IL-6R
T1 sequence (looked up): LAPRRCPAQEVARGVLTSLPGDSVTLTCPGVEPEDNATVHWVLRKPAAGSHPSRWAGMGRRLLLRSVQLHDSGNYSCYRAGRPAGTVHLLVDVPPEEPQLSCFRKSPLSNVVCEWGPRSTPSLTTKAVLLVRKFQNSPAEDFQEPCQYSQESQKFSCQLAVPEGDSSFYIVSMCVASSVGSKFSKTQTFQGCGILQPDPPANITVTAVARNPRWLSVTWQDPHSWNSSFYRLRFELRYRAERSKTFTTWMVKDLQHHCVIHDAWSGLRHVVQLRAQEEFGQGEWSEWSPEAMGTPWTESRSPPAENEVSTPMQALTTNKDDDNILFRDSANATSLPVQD
Assay: Biacore off-rate, periplasmic extracts

binder	unit_of_measurement	koff
IL6R13 (VHH, also called PMP35H4; not shown: C-terminal c-myc and (His)6 tags) VHH: EVQLVESGGGLVQPGGSLRLSCAASGFTFDDYGMSWVRQAPGRATEWVSAISWNGNNTYYTESMKGRFTISRDNAKNTVYLQMNSLKPEDTAVYYCVKGSTAIVGVPPTYPDEYDYWGQGTQVTVSS	s⁻¹	0.00021
IL6R90 (VHH, IL6R13 variant, tested as periplasmic extract) VHH: EVQLVESGGGLVQPGGSLRLSCAASGFTFDDYGMSWVRQAPGKALEWVSAISWNGNNTYYTESMKGRFTISRDNAKNTLYLQMNSLRPEDTAVYYCVKGSTAIVGVPPTYPDEYDYWGQGTLVTVSS	s⁻¹	0.0019
IL6R85 (VHH, IL6R13 variant, tested as periplasmic extract) VHH: EVQLVESGGGLVQPGGSLRLSCAASGFTFDDYGMSWVRQAPGRGLEWVSAISWNGNNTYYTESMKGRFTISRDNAKNTLYLQMNSLRPEDTAVYYCVKGSTAIVGVPPTYPDEYDYWGQGTLVTVSS	s⁻¹	0.0021
IL6R86 (VHH, IL6R13 variant, tested as periplasmic extract) VHH: EVQLVESGGGLVQPGGSLRLSCAASGFTFDDYGMSWVRQAPGRALEWVSAISWNGNNTYYTESMKGRFTISRDNAKNTLYLQMNSLRPEDTAVYYCVKGSTAIVGVPPTYPDEYDYWGQGTLVTVSS	s⁻¹	0.0017
